Assay: qHTS assay to test for compound auto fluorescence at 535 nm (green) in HEK293 cells (AID 720680); also: % is scaled to controls: 0 for no effect and ±100 for the full control effect
Conditions: green autofluorescence 485/535 nm; series mostly up to 46 µM
Activity calls are given as the source filed them. Calls follow the shape of the dose curve; as a rule, active = well fitted curve in the direction sought with a large enough effect in the repeat runs; inconclusive = weak or mixed curves; inactive = flat fitted curve, though single readings scatter.
ENDPOINT_NAME: outcome

COc1ccc2c(c1)OC(C)(C)C(c1ccccc1)C2c1ccc(OCCN2CCCC2)cc1 (centres undefined)	inactive
CC(CCc1ccc(O)cc1)NCC(O)c1ccc(O)cc1 (centres undefined)	inactive
OCC(O)COc1ccc(Cl)cc1 (centres undefined)	inactive
CCCCCCCCCCCCCCCC(=O)O[C@@H]1[C@@H](O)[C@@H](O)[C@@H]([C@H](NC(=O)[C@@H]2C[C@@H](CCC)CN2C)[C@H](C)Cl)O[C@@H]1SC	inactive
O=C(O)c1ccc(OCCn2ccnc2)cc1	inactive
CC1(C)S[C@@H]2[C@H](NC(=O)C3(N)CCCCC3)C(=O)N2[C@H]1C(=O)O	inactive
C[C@H](O)[C@H](O)[C@H]1CNc2nc(N)[nH]c(=O)c2N1	inactive
CCc1ccc2c(c1)N(CC(C)CN(C)C)c1ccccc1S2 (centres undefined)	inactive
CC1(C)[C@@H]2CC[C@@]1(C)[C@H](OC(=O)CSC#N)C2	inactive
OCC(S)CS (centres undefined)	inactive

## Input Tell us which outcome value is on record for COc1cc(C)c(/C=C/C(C)=C/C=C/C(C)=C/C(=O)O)c(C)c1C
## Output inactive

## Input Tell us which outcome value is on record for CNC(C)[C@@H]1CC[C@@H](N)[C@@H](O[C@H]2[C@H](O)[C@@H](O[C@H]3OC[C@](C)(O)[C@H](NC)[C@H]3O)[C@H](N)C[C@@H]2N)O1 (some centres undefined)
## Output inactive

## Input Tell us which outcome value is on record for CN1CCN(CCC=C2c3ccccc3Sc3ccc(S(=O)(=O)N(C)C)cc32)CC1
## Output inactive

## Input Tell us which outcome value is on record for C[C@@H]1CCC2[C@@H](C)[C@@H](O)O[C@@H]3O[C@@]4(C)CC[C@@H]1[C@@]23OO4 (some centres undefined)
## Output inactive

## Input Tell us which outcome value is on record for CO[C@H]1C=CO[C@@]2(C)Oc3c(C)c(O)c4c(O)c(c5c(nc6cc(C)ccn65)c4c3C2=O)NC(=O)/C(C)=C\C=C[C@H](C)[C@H](O)[C@@H](C)[C@@H](O)[C@@H](C)[C@H](OC(C)=O)[C@@H]1C
## Output inactive

----------
Experiment: qHTS assay to identify small molecule that activate the aryl hydrocarbon receptor (AhR) signaling pathway - cell viability counter screen (AID 743086); also: nearly all actives have a fitted effect of over 45% in size; also: potency is read from the fitted curve at half-maximal effect
Conditions: HepG2-AhR-luc viability, CellTiter-Fluor, 24 h; series mostly up to 70.3 µM
Records with an inconclusive call do not appear. The source made the active and inactive calls. Calls follow the shape of the dose curve; as a rule, active = well fitted cell-killing curve with a large enough effect in the repeat runs; inconclusive = weak or mixed curves, or effect the other way; inactive = flat fitted curve, though single readings scatter.
ENDPOINT_NAME: Potency

C=CC1=C(C)C2=CC3=NC(=C(CC(=O)[O-])C4=NC(=C(C)C4=C([O-])[O-])C=c4[n-]c(c(C)c4CC)=CC1=N2)C(CCC(=O)[O-])C3C.[Cu+2].[Na+].[Na+].[Na+] (centres undefined)	23.7 µM (active)
COc1ccc(C(=O)CCC(=O)O)c2ccccc12	inactive
CC(C)(C)C(=O)OCOC(=O)[C@@H]1N2C(=O)[C@@H](N=CN3CCCCCC3)[C@H]2SC1(C)C	inactive
CO[C@H]1C=CO[C@@]2(C)Oc3c(C)c(O)c4c(O)c(c(/C=N/N5CCN(C6CCCC6)CC5)c(O)c4c3C2=O)NC(=O)/C(C)=C\C=C[C@H](C)[C@H](O)[C@@H](C)[C@@H](O)[C@@H](C)[C@H](OC(C)=O)[C@@H]1C	26.6 µM (active)

----------
Please respond with reported max activation for every item in the list.
Target: Nuclear receptor subfamily 1 group I member 2 (Rattus norvegicus) (UniProt Q9R1A7)
Sequence (Q9R1A7 whole entry, looked up): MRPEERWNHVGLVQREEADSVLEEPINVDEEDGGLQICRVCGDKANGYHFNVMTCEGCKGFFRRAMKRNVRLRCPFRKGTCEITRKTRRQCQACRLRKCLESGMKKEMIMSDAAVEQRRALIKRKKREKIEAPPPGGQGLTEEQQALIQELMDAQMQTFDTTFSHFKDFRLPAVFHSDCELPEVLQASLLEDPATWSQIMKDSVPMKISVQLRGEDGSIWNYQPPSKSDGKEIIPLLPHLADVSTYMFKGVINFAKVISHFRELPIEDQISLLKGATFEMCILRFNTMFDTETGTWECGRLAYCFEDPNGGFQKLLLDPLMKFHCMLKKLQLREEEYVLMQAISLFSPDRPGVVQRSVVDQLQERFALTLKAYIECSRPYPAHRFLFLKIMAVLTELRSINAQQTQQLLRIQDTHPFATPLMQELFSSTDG
Experiment: Rat pregnane X receptor (rPXR) activation by small molecules, qHTS assay (AID 1346983); also: % is scaled to controls: 0 for no effect and ±100 for the full control effect; nearly all actives have a fitted effect of over 20% in size
Details: rPXR luciferase reporter cells, One-Glo luminescence, 24 h; hits give high values
Inconclusive results are not listed.
All answers are understood in %, so give the number only.

## Input Tell us which max activation value is on record for CCCCCc1ccc(C)cc1O
## Output 4.82

## Input Tell us which max activation value is on record for CC(C)[C@@H](N)C(=O)O
## Output 2.42

## Input Tell us which max activation value is on record for O=C(O)C1=C(CSc2nnnn2CS(=O)(=O)O)CS[C@@H]2[C@H](NC(=O)[C@H](O)c3ccccc3)C(=O)N12
## Output -0.182

## Input Tell us which max activation value is on record for CCCC(=O)Nc1c(I)cc(I)c(CC(CC)C(=O)O)c1I (configuration not stated)
## Output -4.56

## Input Tell us which max activation value is on record for CCCCC/C=C\CCC(=O)N[C@H]1[C@H](Oc2c3cc4cc2Oc2ccc(cc2Cl)[C@@H](O[C@@H]2O[C@H](CO)[C@@H](O)[C@H](O)[C@H]2NC(C)=O)[C@@H]2NC(=O)[C@H](NC(=O)[C@@H]4NC(=O)[C@H]4NC(=O)[C@@H](Cc5ccc(c(Cl)c5)O3)NC(=O)[C@H](N)c3ccc(O)c(c3)Oc3cc(O)cc4c3)c3ccc(O)c(c3)-c3c(O[C@H]4O[C@H](CO)[C@@H](O)[C@H](O)[C@@H]4O)cc(O)cc3[C@@H](C(=O)O)NC2=O)O[C@H](CO)[C@@H](O)[C@@H]1O
## Output 0.769

## Input Tell us which max activation value is on record for Nc1ncnc2c1ncn2CCOCP(=O)(O)O
## Output -0.588

## Input Tell us which max activation value is on record for CC(=O)c1ccc2c(c1)N(CCCN1CCN(CCO)CC1)c1ccccc1S2
## Output -12.2

----------
Test: qHTS assay for small molecule agonists of the p53 signaling pathway - cell viability (AID 651633); also: nearly all actives have a fitted effect of over 30% in size
Settings: p53RE-bla HCT-116 viability, ATP luminescence, 16 h; series mostly up to 83.3 µM
Inconclusive results are not listed. The source made the active and inactive calls. The call rests on the fitted dose curve.
Entry note: the call must match one of TRUE (active), FALSE (inactive)

## Input Assay outcome for OC1OC[C@@H](O)[C@H](O)[C@@H]1O (stereo partly specified) : what was it?
## Output FALSE

## Input Assay outcome for CN=C1C=CC(=C(c2ccc(N(C)C)cc2)c2ccc(N(C)C)cc2)C=C1 : what was it?
## Output TRUE

## Input Assay outcome for CCCc1ccc(C(=O)O)cc1 : what was it?
## Output FALSE

## Input Assay outcome for OC[C@H]1OC([S-])[C@H](O)[C@@H](O)[C@@H]1O.[Au+] (stereo partly specified) : what was it?
## Output FALSE

## Input Assay outcome for CCC(=O)OCC(=O)[C@@]1(OC(=O)CC)[C@H](C)C[C@H]2[C@@H]3CCC4=CC(=O)C=C[C@]4(C)[C@@]3(F)[C@@H](O)C[C@@]21C : what was it?
## Output FALSE

## Input Assay outcome for CN(C)C=Nc1c(I)cc(I)c(CCC(=O)O)c1I : what was it?
## Output FALSE

## Input Assay outcome for Cn1nnnc1SCC1=C(C(=O)O)N2C(=O)[C@@H](NC(=O)[C@H](O)c3ccccc3)[C@H]2SC1 : what was it?
## Output FALSE

## Input Assay outcome for CC(C)(CO)[C@@H](O)C(=O)NCCC(=O)NCCSSCCNC(=O)CCNC(=O)[C@H](O)C(C)(C)CO : what was it?
## Output FALSE

## Input Assay outcome for N[C@H](CCC(=O)O)C(=O)O : what was it?
## Output FALSE

## Input Assay outcome for Cc1c(N)nc(C(CC(N)=O)NCC(N)C(N)=O)nc1C(=O)NC(C(=O)NC(C)C(O)C(C)C(=O)NC(C(=O)NCCc1nc(-c2nc(C(=O)NCCCN[C@@H](C)c3ccccc3)cs2)cs1)C(C)O)C(O[C@@H]1O[C@@H](CO)[C@@H](O)[C@H](O)[C@@H]1O[C@H]1O[C@H](CO)[C@@H](O)[C@H](OC(N)=O)[C@@H]1O)c1cnc[nH]1 (stereo partly specified) : what was it?
## Output FALSE

## Input Assay outcome for CCOC(=O)CCC(=O)O[C@H]1[C@H](O[C@@H]2[C@@H](C)[C@H](O[C@H]3C[C@@](C)(OC)[C@@H](O)[C@H](C)O3)[C@@H](C)C(=O)O[C@H](CC)[C@@](C)(O)[C@H](O)[C@@H](C)C(=O)[C@H](C)C[C@@]2(C)O)O[C@H](C)C[C@@H]1N(C)C : what was it?
## Output FALSE

## Input Assay outcome for COc1ccc(C[C@H](N)C(=O)N[C@H]2[C@@H](O)[C@H](n3cnc4c(N(C)C)ncnc43)O[C@@H]2CO)cc1 : what was it?
## Output TRUE

## Input Assay outcome for Cc1cccc(C)c1Nc1ncccc1C(=O)O : what was it?
## Output FALSE

## Input Assay outcome for CCCCC/C=C\C/C=C\C/C=C\CCCCC(=O)O : what was it?
## Output FALSE

## Input Assay outcome for CCCCC(O)c1ccccc1 (stereo unspecified) : what was it?
## Output TRUE

## Input Assay outcome for CC(C)C(=O)OCC(=O)[C@@]12O[C@H](C3CCCCC3)O[C@@H]1C[C@H]1[C@@H]3CCC4=CC(=O)C=C[C@]4(C)[C@H]3[C@@H](O)C[C@@]12C : what was it?
## Output FALSE
